Just for reference, paper PMC6522510 is where these values come from.

Reported MOLM-13 %inh by item:
System: MOLM-13
Parameters: species or system AML cell lines (8); Primary HTS, single concentration about 10 uM, Cell Titer Glo viability; log10 luminescence, per cent inhibition relative to cycloheximide control
Conditions: 72 h, relative to cycloheximide control, log10 luminescence; inhibitor
Counter-ions that a name gives are not always drawn.
Kindly answer with a numeric value in %, unit omitted.

[
  {
    "compound": "Cc1nc2sc3c(N)ncnc3c2c(C)c1C [SJ000581052-1]",
    "unit-abbreviation": "%",
    "MOLM-13 %inh": 0.3678
  },
  {
    "compound": "Cc1ccccc1-n1c(Cn2cnc3c(N)ncnc32)nc2cccc(C)c2c1=O [SJ000571308-2, IC-87114 | PIK 293]",
    "unit-abbreviation": "%",
    "MOLM-13 %inh": 2.064
  },
  {
    "compound": "COc1cccc2c1c(C1=C(c3cn(C)c4ccccc34)C(=O)NC1=O)cn2C [SJ000581070-1]",
    "unit-abbreviation": "%",
    "MOLM-13 %inh": 2.978
  },
  {
    "compound": "COc1cc(Nc2ncc(-c3ccccc3)o2)cc(OC)c1 [SJ000573115-1, U21834/32/1]",
    "unit-abbreviation": "%",
    "MOLM-13 %inh": 74.91
  }
]

Per the record, CC(C)[C@@H]1C(=O)N(S(C)(=O)=O)[C@@H]2CCN(C(=O)/C=C/CN3CCCCC3)[C@H]21 [SJ000772418-1, GW 311616 HYDROCHLORIDE] has MOLM-13 %inh of -2.354

Per the record, CNC(=O)[C@H](Cc1c[nH]c2ccccc12)NC(=O)[C@@H](CC(=O)NO)CC(C)C [SJ000755078-1, GM 6001 | ILOMASTAT (GM6001, GALARDIN)] has MOLM-13 %inh of 3.013

Per the record, Cn1cc(C2=C(c3c4n(c5ccccc35)CCN(C(N)=S)C4)C(=O)NC2=O)c2ccccc21 [SJ000581017-1] has MOLM-13 %inh of 83.86

Per the record, Cc1ccc(C)c(C2=C(c3cn(C)c4ccccc34)C(=O)NC2=O)c1 [SJ000581152-1] has MOLM-13 %inh of 2.3

----------
Tested on: CMS
Parameters: species or system AML cell lines (8); Primary HTS, single concentration about 10 uM, Cell Titer Glo viability; log10 luminescence, per cent inhibition relative to cycloheximide control
Details: 72 h, relative to cycloheximide control, log10 luminescence; inhibitor
Counter-ions that a name gives are not always drawn.
measure-name: CMS %inh (%)
Kindly answer with a numeric value in %, unit omitted.

Observe how each entry below is paired with its result.
[
  {
    "compound": "NC[C@H](CC(=O)O)c1ccc(Cl)cc1 (racemic)",
    "test-system": "CMS",
    "measure-name": "CMS %inh",
    "assay-result": 7.511
  },
  {
    "compound": "CS(=O)(=O)N1CCC(n2c(=O)c(Oc3ccc(F)cc3F)cc3cnc(NC4CCOCC4)nc32)CC1",
    "test-system": "CMS",
    "measure-name": "CMS %inh",
    "assay-result": -1.205
  },
  {
    "compound": "CCOCCn1c(N2CCCN(C)CC2)nc2ccccc21 [SJ000556751-1, EMEDASTINE DIFUMARATE]",
    "test-system": "CMS",
    "measure-name": "CMS %inh",
    "assay-result": -0.1534
  }
]

Per the record, `COc1cccc(-n2ncc3c(N/N=C/c4ccc(F)cc4)ncnc32)c1` has CMS %inh of 1.318

Per the record, CCCCNC(=O)[C@@H]1Cc2ccccc2N1C(=O)[C@@H](N)CC [SJ000772394-1, BUTABINDIDE OXALATE] has CMS %inh of 0.61

Per the record, `Cn1cc(C2=C(c3cn(C)c4cc(C(=O)O)ccc34)C(=O)NC2=O)c2ccccc21` has CMS %inh of -3.422

Per the record, `CCCNc1cccc(-n2ncc3c(N/N=C/c4ccncc4)ncnc32)c1` has CMS %inh of 0.7041

Per the record, `Cn1cc(C2=C(c3cccnc3)C(=O)NC2=O)c2ccccc21` has CMS %inh of 3.929

Per the record, `COc1ccc(-c2ccncc2)cc1C(N)=O` has CMS %inh of 5.051

Per the record, `O=C1NC(=O)C(c2ccccc2Cl)=C1Nc1cccc(O)c1` has CMS %inh of 26.93
